- Tested on: CU-ACC2
- Assay summary: AC50 viability; higher = less potent
- Experimental context: 48 h
// reported AC50 viability per item
Measurement label: AC50 viability (µM)

- CCCCCCCOc1ccc(CCC(N)(CO)CO)cc1C(F)(F)F: 16.6
- COc1cccc([C@@H](C)NCCCc2ccccc2Cl)c1: 23.5
- CCNC(=O)C#Cc1ccc2c(c1)NC(=O)/C2=C(\Nc1ccc(CN(C)C)cc1)c1ccccc1: 2.88
- N#Cc1ccnc(Nc2cc(C3CCN(C4COC4)CC3)cc(N3CCC(F)(F)C3)n2)c1: 1.66
- CN[C@@H](C)C(=O)N[C@H]1CCCC[C@H]2CC[C@@H](C(=O)N[C@@H](c3ccccc3)c3cn(CCCCc4ccc(CCCCn5cc([C@@H](NC(=O)[C@@H]6CC[C@@H]7CCCC[C@H](NC(=O)[C@H](C)NC)C(=O)N76)c6ccccc6)nn5)cc4)nn3)N2C1=O: 0.332
- COc1cc(O)c2c(c1)C1OC1C[C@H](O)[C@H](O)C(=O)/C=C\C[C@H](C)OC2=O (some centres not stated): 16.6
- CN[C@@H]1CN(C[C@H]1OC)C2=NC3=C(C=C2)C(=O)C(=C\N3C4=NC=CS4)/C(O)=O: 4.56

* * *

- System: NCI-H295R
- Assay summary: area under concentration-response curve (viability) (AUC (a.u.)); higher = less active
- Experimental context: 48 h
Reported area under concentration-response curve values for the following molecules.
Measurement label: area under concentration-response curve

- CCN(CCO)CCCOc1ccc2c(Nc3cc(CC(=O)Nc4cccc(F)c4)[nH]n3)ncnc2c1: 483
- COc1cc2c(cc1OC)C1CC(=O)C(CC(C)C)CN1CC2 (stereo not drawn): 567
- C/C(=N\NC(=S)N1CCC1)c1ccccn1: 396
- CC(C)(O)C(=O)Nc1ccc([N+](=O)[O-])c(C(F)(F)F)c1: 537
- Cc1c(CN2CCN(C(=O)[C@H](C)O)CC2)sc2c(N3CCOCC3)nc(-c3cnc(N)nc3)nc12: 210
- COc1ccc2cc3[n+](cc2c1OC)CCc1cc2c(cc1-3)OCO2: 557
- COCC1(CO)C(=O)C2CCN1CC2 (stereo not drawn): 468
- Cc1ccc([S+](=O)([O-])OCC(=O)Nc2ccc(C(=O)O)c(O)c2)cc1: 546
- CCC[C@@H](C=O)NC(=O)[C@H](CC(C)C)NC(=O)[C@H](CC(C)C)NC(=O)OCc1ccccc1: 439
- Cn1nccc1Nc1nccc(-c2cc3c(s2)C(C)(C)N(CCN2CCOCC2)C3=O)n1: 544
- COc1cc2c(cc1OC)CC(=O)N(CCCN(C)C[C@H]1Cc3cc(OC)c(OC)cc31)CC2: 542
- COc1cc(C(=O)NC2CCN(C)CC2)ccc1Nc1ncc2c(n1)N(C1CCCC1)CCC(=O)N2C(C)C: 538
- N[S+]([O-])(=O)C1=C(Cl)C=C2\N=C/N[S+]([O-])(=O)C2=C1: 576
- CC1(C)O[C@@H]2C[C@H]3[C@@H]4C[C@H](F)\C5=C\C(=O)\C=C/[C@]5(C)[C@H]4[C@@H](O)C[C@]3(C)[C@@]2(O1)C(=O)CO: 588
- COCCCc1sc(-c2ccccc2)nc1C(=O)Nc1ccccc1-c1nc2cc(CN3CCCC3)cnc2s1: 567
- c1cn2cc(-c3ccc4cn[nH]c4c3)nc(Nc3ccc(N4CCOCC4)cc3)c2n1: 497
- O=C(NC[C@H]1CN(c2ccc(N3CCOCC3=O)cc2)C(=O)O1)c1ccc(Cl)s1: 557
- COc1ccccc1N1CCN(CCN(C(=O)C2CCCCC2)c2ccccn2)CC1: 378
